experiment: α-helix ratio of polypeptides by circular dichroism; format: physicochemical; settings: PBS solution, 1 mg/mL
Bridge positions count the residues as written; N and C are the ends. Square brackets hold non-standard residues; d marks the D form. Peptide text beside a SMILES is read from it. S5 = C=CCCC[C@](C)(N)C(=O)O
Value Kind: α-helicity (%)
Give the number; % is assumed, so skip it.

Lab note: measured α-helicity (%) of CSCC[C@H](NC(=O)[C@H](CC(C)C)NC(=O)[C@@H](N)Cc1c[nH]cn1)C(=O)N[C@@H](C)C(=O)N[C@@H](CS)C(=O)N[C@@H](Cc1ccccc1)C(=O)N[C@@]1(C)CCCC=CCCC[C@@](C)(C(=O)N[C@@H](CC(C)C)C(=O)N[C@@H](CCCCN)C(=O)N[C@@H](CCCCN)C(=O)N[C@@H](CCCNC(=N)N)C(=O)O)NC(=O)[C@H](CCCCN)NC(=O)[C@H](C)NC(=O)[C@H](CS)NC1=O [S7] (H-HLMACF[S5]CAK[S5]LKKR-OH; staple 7-11; N-terminus and C-terminus assumed) was 51.0

---

assay: α-helix ratio of polypeptides by circular dichroism; type: physicochemical; details: PBS solution, 1 mg/mL
Bridge positions count the residues as written; N and C are the ends. Square brackets hold non-standard residues; d marks the D form. Peptide text beside a SMILES is read from it. S5 = C=CCCC[C@](C)(N)C(=O)O
Value Kind: α-helicity (%)
Returns: string containing the number followed by the unit.

CSCC[C@H](NC(=O)[C@H](CC(C)C)NC(=O)[C@@H](N)Cc1c[nH]cn1)C(=O)N[C@@H](C)C(=O)N[C@@H](CS)C(=O)N[C@@H](Cc1ccccc1)C(=O)N[C@H](C(=O)N[C@@H](CS)C(=O)N[C@@]1(C)CCCC=CCCC[C@@](C)(C(=O)N[C@@H](CCCCN)C(=O)N[C@@H](CCCNC(=N)N)C(=O)O)NC(=O)[C@H](CC(C)C)NC(=O)[C@H](CCCCN)NC(=O)[C@H](CCCCN)NC1=O)[C@@H](C)O [S9] (H-HLMACFTC[S5]KKL[S5]KR-OH; staple 9-13; N-terminus and C-terminus assumed) : 44.0%

Lab note: measured α-helicity (%) of CSCC[C@@H]1NC(=O)[C@H](CC(C)C)NC(=O)[C@@](C)(N)CCCC=CCCC[C@@](C)(C(=O)N[C@@H](Cc2ccccc2)C(=O)N[C@H](C(=O)N[C@@H](CS)C(=O)N[C@@H](C)C(=O)N[C@@H](CCCCN)C(=O)N[C@@H](CCCCN)C(=O)N[C@@H](CC(C)C)C(=O)N[C@@H](CCCCN)C(=O)N[C@@H](CCCCN)C(=O)N[C@@H](CCCNC(=N)N)C(=O)O)[C@@H](C)O)NC(=O)[C@H](C)NC1=O [S1] (H-[S5]LMA[S5]FTCAKKLKKR-OH; staple 1-5; N-terminus and C-terminus assumed) was 39.5%

---

test system: mice with bleomycin-induced pulmonary fibrosis; experiment: Survival rate of mice with bleomycin-induced pulmonary fibrosis; assay type: in vivo, C57BL/6 mice; details: Table 3 groups: 2 mg/kg i.p., 10th to 28th day after modeling, twice a week; 21 days
Bridge positions count the residues as written; N and C are the ends. Square brackets hold non-standard residues; d marks the D form. Peptide text beside a SMILES is read from it. S5 = C=CCCC[C@](C)(N)C(=O)O
Value Kind: Survival rate (%) 21 days
Give the number; % is assumed, so skip it.

Lab note: measured Survival rate (%) 21 days of CC(C)C[C@H](NC(=O)[C@H](CCCCN)NC(=O)[C@H](CCCCN)NC(=O)[C@H](C)NC(=O)[C@H](CS)NC(=O)[C@]1(C)CCCC=CCCC[C@](C)(NC(=O)[C@H](CC(C)C)NC(=O)[C@@H](N)Cc2c[nH]cn2)C(=O)N[C@@H](C)C(=O)N[C@@H](CS)C(=O)N[C@@H](Cc2ccccc2)C(=O)N1)C(=O)N[C@@H](CCCCN)C(=O)N[C@@H](CCCCN)C(=O)N[C@@H](CCCNC(=N)N)C(=O)O [S3] (H-HL[S5]ACF[S5]CAKKLKKR-OH; staple 3-7; N-terminus and C-terminus assumed) was 86.67
